B1: library; numbered along this chain (parent)
chain: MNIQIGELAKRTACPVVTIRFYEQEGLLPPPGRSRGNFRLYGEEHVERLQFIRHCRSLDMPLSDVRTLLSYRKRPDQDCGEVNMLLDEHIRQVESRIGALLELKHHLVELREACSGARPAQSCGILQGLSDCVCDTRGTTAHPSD

Variants of: B1
Assay: sfGFP reporter fluorescence (15 h) (µM FITC); higher = higher leak
Settings: library round: Round 0; ligand: none
Measured metric: sfGFP reporter fluorescence
Give bare numbers.

Would you please look over these solved cases?
| Variant descriptor | Measured metric | Value reported |
| --- | --- | --- |
| C55D | sfGFP reporter fluorescence | 0.0608 |
| R39S | sfGFP reporter fluorescence | 0.0607 |
| E7Y | sfGFP reporter fluorescence | 0.0625 |

Give sfGFP reporter fluorescence for each of the items listed below.
1. L27C
2. L129W
3. P61N L107C G128I
4. L68Y
5. Q121A
6. E112D

Result:
1. 0.0629
2. 0.0572
3. 1.6
4. 0.0634
5. 0.0645
6. 0.0612

Give sfGFP reporter fluorescence for each of the items listed below.
1. I90M
2. E7S
3. P61N D64K K104V

Result:
1: 0.0588; 2: 0.0625; 3: 0.26

Give sfGFP reporter fluorescence for each of the items listed below.
1. P61N L107C
2. I125G
3. E7N
4. I3L

Result:
1: 1.34; 2: 0.0546; 3: 0.0592; 4: 0.0568
